# assayedSystem: Fes (UniProt P07332)
# Sequence (P07332 whole entry, looked up): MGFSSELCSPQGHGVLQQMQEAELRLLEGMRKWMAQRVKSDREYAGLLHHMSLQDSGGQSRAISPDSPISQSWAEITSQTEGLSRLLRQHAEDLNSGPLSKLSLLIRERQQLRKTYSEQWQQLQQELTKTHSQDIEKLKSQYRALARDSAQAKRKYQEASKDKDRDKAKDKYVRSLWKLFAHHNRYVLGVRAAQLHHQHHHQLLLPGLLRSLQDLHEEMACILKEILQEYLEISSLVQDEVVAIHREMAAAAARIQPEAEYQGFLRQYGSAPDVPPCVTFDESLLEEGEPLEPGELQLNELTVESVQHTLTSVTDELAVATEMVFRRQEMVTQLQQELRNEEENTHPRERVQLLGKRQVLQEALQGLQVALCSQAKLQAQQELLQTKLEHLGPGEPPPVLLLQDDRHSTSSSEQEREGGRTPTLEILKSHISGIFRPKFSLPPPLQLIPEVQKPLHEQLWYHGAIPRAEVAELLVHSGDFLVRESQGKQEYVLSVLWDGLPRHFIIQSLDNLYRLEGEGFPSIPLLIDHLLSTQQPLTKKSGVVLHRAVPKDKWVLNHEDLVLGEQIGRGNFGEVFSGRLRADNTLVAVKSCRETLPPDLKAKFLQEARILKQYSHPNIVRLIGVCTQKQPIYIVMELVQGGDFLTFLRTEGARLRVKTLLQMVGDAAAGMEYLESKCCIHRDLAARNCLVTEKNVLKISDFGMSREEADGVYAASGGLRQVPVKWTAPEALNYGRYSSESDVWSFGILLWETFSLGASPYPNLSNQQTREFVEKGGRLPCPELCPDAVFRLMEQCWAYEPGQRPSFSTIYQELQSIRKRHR
# assayInfo: phosphorylation enrichment, bacterial display (enrichment ratio); higher = better substrate or ligand; peptides without Tyr show the background;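 further: 11-residue human phosphosite peptides and single-mutation variants displayed on the E. coli surface, counted by deep sequencing, each peptide's frequency after selection divided by its frequency in the unselected input library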;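 further: frequency after pTyr selection over input frequency; kinase dosed for 20-30% of maximal phosphorylation in three min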
Output Fulfilled for phosphorylation enrichment not less than 1; output Not fulfilled otherwise.

INSERT INTO measurements (residues, assayedsystem, classlabel) VALUES
  ('SAVTGYRVNVI [FN1_Y937_D940N]', 'Fes (UniProt P07332)', 'Not fulfilled'),
  ('KVVQEYERVII [NPHS2_Y131]', 'Fes (UniProt P07332)', 'Not fulfilled'),
  ('PSPTKYSLSPS [RANBP2_Y785_R784K]', 'Fes (UniProt P07332)', 'Not fulfilled'),
  ('LSRDVYEEDSY [RET_Y900]', 'Fes (UniProt P07332)', 'Fulfilled'),
  ('IVKAYYVRARA [AIPL1_Y268]', 'Fes (UniProt P07332)', 'Not fulfilled'),
  ('ADKSVYLMGLN [MYH7_Y386_A385V]', 'Fes (UniProt P07332)', 'Not fulfilled'),
  ('TPGPNYRPGYN [USH2A_Y463]', 'Fes (UniProt P07332)', 'Not fulfilled'),
  ('QEGPEYWDGNT [HLA-B_Y83_R86G]', 'Fes (UniProt P07332)', 'Fulfilled'),
  ('RKLASYRSCLL [DHX37_Y1080]', 'Fes (UniProt P07332)', 'Not fulfilled'),
  ('ELANLYHHVCM [BICD2_Y538]', 'Fes (UniProt P07332)', 'Fulfilled'),
  ('VREIRYQGGNR [VWF_Y1570]', 'Fes (UniProt P07332)', 'Not fulfilled'),
  ('ETEMLYGSAPR [PRC1_Y464]', 'Fes (UniProt P07332)', 'Not fulfilled'),
  ('DTDSSYCIPIA [GAB1_Y373_T377I]', 'Fes (UniProt P07332)', 'Fulfilled'),
  ('FEREQYADRAR [RBM4_Y355_YF]', 'Fes (UniProt P07332)', 'Not fulfilled'),
  ('RKLVDYNSARH [BIN1_Y150_D151N]', 'Fes (UniProt P07332)', 'Not fulfilled'),
  ('LFIGQYSGKKE [L1CAM_Y1229_S1224L]', 'Fes (UniProt P07332)', 'Fulfilled'),
  ('LDYNEYFRDLN [HPRT1_Y198]', 'Fes (UniProt P07332)', 'Fulfilled');

====

# assayedSystem: EPHB2 (UniProt P29323)
# Sequence (P29323 whole entry, looked up): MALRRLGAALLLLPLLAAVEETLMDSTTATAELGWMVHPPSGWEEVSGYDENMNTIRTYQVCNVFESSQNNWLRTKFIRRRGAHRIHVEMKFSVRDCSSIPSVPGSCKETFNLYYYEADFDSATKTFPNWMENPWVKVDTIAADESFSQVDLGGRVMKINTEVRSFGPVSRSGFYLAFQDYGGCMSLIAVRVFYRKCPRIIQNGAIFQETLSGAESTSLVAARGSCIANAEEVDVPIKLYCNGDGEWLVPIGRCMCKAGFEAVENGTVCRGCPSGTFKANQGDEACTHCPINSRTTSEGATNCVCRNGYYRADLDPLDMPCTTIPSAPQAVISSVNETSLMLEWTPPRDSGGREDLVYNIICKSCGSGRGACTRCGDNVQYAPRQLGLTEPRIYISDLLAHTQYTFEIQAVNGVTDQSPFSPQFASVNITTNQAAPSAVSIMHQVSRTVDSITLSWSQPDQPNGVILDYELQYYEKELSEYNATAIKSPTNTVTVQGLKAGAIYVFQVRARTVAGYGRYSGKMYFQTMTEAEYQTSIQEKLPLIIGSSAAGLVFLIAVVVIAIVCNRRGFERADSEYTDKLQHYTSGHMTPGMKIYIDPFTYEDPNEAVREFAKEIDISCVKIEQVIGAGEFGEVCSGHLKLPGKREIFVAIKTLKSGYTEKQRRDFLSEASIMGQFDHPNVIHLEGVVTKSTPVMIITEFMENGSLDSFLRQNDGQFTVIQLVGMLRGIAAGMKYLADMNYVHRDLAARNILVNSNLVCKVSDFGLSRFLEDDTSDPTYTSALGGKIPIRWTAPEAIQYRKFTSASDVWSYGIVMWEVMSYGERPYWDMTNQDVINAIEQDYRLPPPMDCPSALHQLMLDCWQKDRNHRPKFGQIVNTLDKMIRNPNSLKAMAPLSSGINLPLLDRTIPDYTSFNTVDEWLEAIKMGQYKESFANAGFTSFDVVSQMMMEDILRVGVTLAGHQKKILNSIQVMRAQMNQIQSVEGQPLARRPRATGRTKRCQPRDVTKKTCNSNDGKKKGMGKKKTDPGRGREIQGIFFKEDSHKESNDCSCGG
# assayInfo: phosphorylation enrichment, bacterial display (enrichment ratio); higher = better substrate or ligand; peptides without Tyr show the background
measure: phosphorylation enrichment

INSERT INTO measurements (residues, experimentalvalue) VALUES
  ('ELANLYHHVCM [BICD2_Y538]', 0.708),
  ('IETGKYEILTE', 0.601),
  ('EAAFVYAISSA [WNT4_Y113]', 0.59),
  ('EQLRAYLEGTC [HLA-C_Y183]', 0.591),
  ('LFSLGYHQSLW [GANAB_Y396_R400L]', 0.702),
  ('DIDKIYVRTGI [PIK3CA_Y355]', 0.593);

====

# assayedSystem: EPHB1 (UniProt P54762)
# Sequence (P54762 whole entry, looked up): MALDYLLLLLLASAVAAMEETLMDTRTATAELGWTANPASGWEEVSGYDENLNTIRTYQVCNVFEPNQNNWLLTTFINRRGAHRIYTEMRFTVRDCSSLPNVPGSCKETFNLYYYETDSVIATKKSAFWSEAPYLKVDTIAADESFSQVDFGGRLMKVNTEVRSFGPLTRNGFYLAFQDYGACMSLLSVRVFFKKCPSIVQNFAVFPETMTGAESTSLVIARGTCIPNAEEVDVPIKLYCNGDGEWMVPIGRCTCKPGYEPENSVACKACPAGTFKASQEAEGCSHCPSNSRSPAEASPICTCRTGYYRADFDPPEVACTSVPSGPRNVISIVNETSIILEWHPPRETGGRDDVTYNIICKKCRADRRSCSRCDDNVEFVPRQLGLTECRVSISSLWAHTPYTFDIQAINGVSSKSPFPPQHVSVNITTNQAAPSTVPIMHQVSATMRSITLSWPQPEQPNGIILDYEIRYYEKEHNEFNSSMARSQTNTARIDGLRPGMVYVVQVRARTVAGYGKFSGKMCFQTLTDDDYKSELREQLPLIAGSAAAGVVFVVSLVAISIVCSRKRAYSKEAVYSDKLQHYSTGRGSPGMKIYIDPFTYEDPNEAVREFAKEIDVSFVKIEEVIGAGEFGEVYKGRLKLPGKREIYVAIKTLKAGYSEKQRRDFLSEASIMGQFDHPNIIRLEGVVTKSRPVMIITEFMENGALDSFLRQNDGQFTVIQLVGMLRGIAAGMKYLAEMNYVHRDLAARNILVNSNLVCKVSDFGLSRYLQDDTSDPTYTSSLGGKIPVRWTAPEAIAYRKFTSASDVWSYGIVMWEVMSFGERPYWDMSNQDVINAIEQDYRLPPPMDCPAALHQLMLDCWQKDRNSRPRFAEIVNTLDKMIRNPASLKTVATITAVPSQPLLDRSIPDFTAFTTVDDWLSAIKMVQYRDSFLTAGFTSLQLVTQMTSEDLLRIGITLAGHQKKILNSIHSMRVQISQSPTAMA
# assayInfo: phosphorylation enrichment, bacterial display (enrichment ratio); higher = better substrate or ligand; peptides without Tyr show the background
measure: phosphorylation enrichment

INSERT INTO measurements (residues, experimentalvalue) VALUES
  ('TQFWLYFAGNL [SLC25A5_Y112]', 0.681),
  ('DKITQYVEEVK [STX2_Y49]', 0.507),
  ('EHFSFYGMKAV [SLC15A2_Y61_R57H_YF]', 0.498),
  ('CTTIHYDFMCN [TP53_Y234_N235D_YF]', 0.681);

====

// reported phosphorylation enrichment for each item listed
# assayedSystem: Jak2 (UniProt O60674)
# Sequence (O60674 whole entry, looked up): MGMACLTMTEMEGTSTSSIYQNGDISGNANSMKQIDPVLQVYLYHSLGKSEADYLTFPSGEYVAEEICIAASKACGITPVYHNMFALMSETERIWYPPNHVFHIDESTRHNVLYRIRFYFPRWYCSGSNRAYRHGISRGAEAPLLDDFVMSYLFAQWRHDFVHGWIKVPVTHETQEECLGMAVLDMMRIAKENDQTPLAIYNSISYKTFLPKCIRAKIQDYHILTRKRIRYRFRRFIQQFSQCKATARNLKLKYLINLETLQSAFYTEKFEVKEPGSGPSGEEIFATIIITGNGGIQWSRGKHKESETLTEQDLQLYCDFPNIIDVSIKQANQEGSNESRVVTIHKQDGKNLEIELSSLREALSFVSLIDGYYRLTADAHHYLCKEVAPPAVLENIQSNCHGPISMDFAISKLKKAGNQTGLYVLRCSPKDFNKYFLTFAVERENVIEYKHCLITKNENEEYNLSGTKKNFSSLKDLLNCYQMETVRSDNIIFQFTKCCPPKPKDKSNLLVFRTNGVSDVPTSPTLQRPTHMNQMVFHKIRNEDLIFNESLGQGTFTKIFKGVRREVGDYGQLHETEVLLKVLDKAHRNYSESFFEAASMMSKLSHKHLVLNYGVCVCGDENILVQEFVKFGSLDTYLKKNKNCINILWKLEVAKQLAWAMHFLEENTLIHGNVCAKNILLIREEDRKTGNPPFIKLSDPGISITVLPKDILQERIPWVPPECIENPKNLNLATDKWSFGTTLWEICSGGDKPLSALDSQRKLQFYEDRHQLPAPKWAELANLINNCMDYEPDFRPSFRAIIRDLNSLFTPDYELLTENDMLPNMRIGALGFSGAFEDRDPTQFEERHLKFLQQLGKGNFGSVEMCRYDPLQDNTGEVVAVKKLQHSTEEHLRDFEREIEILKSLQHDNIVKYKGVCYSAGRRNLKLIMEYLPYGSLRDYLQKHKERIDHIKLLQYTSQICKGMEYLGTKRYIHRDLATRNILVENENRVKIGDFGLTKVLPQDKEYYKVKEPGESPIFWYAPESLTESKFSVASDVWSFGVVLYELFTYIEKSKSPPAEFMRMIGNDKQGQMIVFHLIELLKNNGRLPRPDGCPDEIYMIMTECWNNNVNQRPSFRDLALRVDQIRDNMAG
# assayInfo: phosphorylation enrichment, bacterial display (enrichment ratio); higher = better substrate or ligand; peptides without Tyr show the background
measure: phosphorylation enrichment

INSERT INTO assay_data (residues, assayedsystem, experimentalvalue) VALUES
  ('RRVLVYRGRGA [QDPR_Y16_G17R]', 'Jak2 (UniProt O60674)', 0.692),
  ('AKAEIYEMRPL [COX10_Y97]', 'Jak2 (UniProt O60674)', 0.77),
  ('AGQEDYDRLRP [CDC42_Y64]', 'Jak2 (UniProt O60674)', 0.839),
  ('RSGNCYLDIRP [FBN1_Y1535]', 'Jak2 (UniProt O60674)', 1.45),
  ('WISNRYPDFSS [PRPH2_Y184_L185P]', 'Jak2 (UniProt O60674)', 0.841),
  ('SSSAIYDNPDL [DCP1B_Y191_N195D]', 'Jak2 (UniProt O60674)', 0.914),
  ('LREKVYVSLEA [RXRA_Y397_A398V]', 'Jak2 (UniProt O60674)', 0.723),
  ('QEGPEYWDQET [HLA-A_Y83]', 'Jak2 (UniProt O60674)', 1.94),
  ('TVEDHYFEGGI [TKT_Y563_YF]', 'Jak2 (UniProt O60674)', 0.776),
  ('PKEEPYQMQEK [SLC5A3_Y565]', 'Jak2 (UniProt O60674)', 1.17),
  ('ETGNLYIAKVE [CNTN4_Y180]', 'Jak2 (UniProt O60674)', 0.757),
  ('YLNSSYINIST [IL23R_Y178_T175N]', 'Jak2 (UniProt O60674)', 1.23),
  ('VKGGAYNPVTV [MCCC2_Y145_Y146N]', 'Jak2 (UniProt O60674)', 0.781),
  ('GANSEYIIAEK [ECHS1_Y35_F33S]', 'Jak2 (UniProt O60674)', 1.1),
  ('NFYEYYVDDPP [GCHFR_Y48]', 'Jak2 (UniProt O60674)', 1.23),
  ('KILGRYFETSS [PAX2_Y72_G76S_YF]', 'Jak2 (UniProt O60674)', 0.706),
  ('RLEKEYFDQHF [NPC1_Y394]', 'Jak2 (UniProt O60674)', 1.44),
  ('KAIMTYVFSFY [ACTN4_Y260_S262F]', 'Jak2 (UniProt O60674)', 1.06),
  ('ATARPYSPYII [LRP5_Y1528_R1529S]', 'Jak2 (UniProt O60674)', 0.668),
  ('TQFWLYFAGNL [SLC25A5_Y112]', 'Jak2 (UniProt O60674)', 1.64),
  ('KDFETYQSFQN [CTNND2_Y1157_P1159S_YF]', 'Jak2 (UniProt O60674)', 0.798),
  ('TTPAVYARVTK [CTRB2_Y246_A250T]', 'Jak2 (UniProt O60674)', 0.618),
  ('GVFSRHFTTFD [CLCA1_Y661_Y661H_YF]', 'Jak2 (UniProt O60674)', 0.483),
  ('FADPFYDFEIE [ZC3H18_Y372_YF]', 'Jak2 (UniProt O60674)', 1.12),
  ('DLAGRYYALKS [CKB_Y173]', 'Jak2 (UniProt O60674)', 1.58),
  ('IGHHAYGDQFR [IDH1_Y135_R132H_YF]', 'Jak2 (UniProt O60674)', 0.503),
  ('GGYTCYSDGKK [PROS1_Y266_C267S]', 'Jak2 (UniProt O60674)', 1.01),
  ('IGSHAYGDQYR [IDH1_Y135_R132S]', 'Jak2 (UniProt O60674)', 0.554),
  ('GRPLFYWLTGC [LYZL6_Y140]', 'Jak2 (UniProt O60674)', 1.04),
  ('MGGSVYFSFPD [HIKESHI_Y55_YF]', 'Jak2 (UniProt O60674)', 1.94),
  ('SQDSAYHSGIQ [FLG_Y3940]', 'Jak2 (UniProt O60674)', 0.492),
  ('VHNLDYFKMTT [FGFR3_Y647_K650M_YF]', 'Jak2 (UniProt O60674)', 7.7),
  ('GRGMPYGGRGD [TGM1_Y312_R307G]', 'Jak2 (UniProt O60674)', 0.488),
  ('YRDMDYRSYPH [RBM10_Y41_R46H]', 'Jak2 (UniProt O60674)', 0.621),
  ('FEREQYADRAR [RBM4_Y355_YF]', 'Jak2 (UniProt O60674)', 0.515),
  ('GRPLSYWLTGC [LYZL6_Y140_F139S]', 'Jak2 (UniProt O60674)', 1.24),
  ('PVQAPYQKVVA [HBB_Y131_A130P]', 'Jak2 (UniProt O60674)', 0.687),
  ('PSPTKYSLSPS [RANBP2_Y785_R784K]', 'Jak2 (UniProt O60674)', 0.725),
  ('LMVFEYMRHGD [NTRK1_Y591]', 'Jak2 (UniProt O60674)', 1),
  ('FETDFYQKGGK [INSR_Y1190_R1191Q_YF]', 'Jak2 (UniProt O60674)', 0.526),
  ('VLALWYYYLTN [ZDHHC23_Y127_H132N]', 'Jak2 (UniProt O60674)', 3.09),
  ('SVGVPYEPPEV [TP53_Y220_V217G]', 'Jak2 (UniProt O60674)', 1.09),
  ('ARLEYCENEKK [IRS1_Y47_Y47C]', 'Jak2 (UniProt O60674)', 0.687),
  ('RRVEPYGENFN [APOA4_Y310]', 'Jak2 (UniProt O60674)', 0.965),
  ('LHSEAYLKYIE [PBRM1_Y1610]', 'Jak2 (UniProt O60674)', 1.55),
  ('ANAFIYVVQLP [L1CAM_Y420_YF]', 'Jak2 (UniProt O60674)', 1.02),
  ('EFGSGYPNDPK [RNASEH2A_Y210_D205E_YF]', 'Jak2 (UniProt O60674)', 0.797);
